Just for reference, paper PMC9276671 is where these values come from.

Experiment: Plasma pharmacokinetics of ALM201 in Phase I patients (validated LC-MS/MS, Phoenix WinNonlin)
Conditions: human, plasma, sc, 200 mg, Plasma concentration, geometric mean (CV%), 200 mg SC, day 3 cycle 1, 2 h after dosing, n = 4; LC-MS/MS
No end group written: not given here.
measured_parameter: level at 2 h (ng/mL)

{"residue_string": "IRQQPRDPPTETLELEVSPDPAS [ALM201]", "observed_value": 1540}

* * *

Assay: Plasma pharmacokinetics of ALM201 in Phase I patients (validated LC-MS/MS, Phoenix WinNonlin)
Details: human, plasma, sc, 20 mg, Plasma concentration, geometric mean (CV%), 20 mg SC, day 3 cycle 1, 3.5 h after dosing, n = 1; LC-MS/MS
No end group written: not given here.
measured_parameter: level at 3.5 h (µg/mL)

{"residue_string": "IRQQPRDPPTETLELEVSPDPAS [ALM201]", "measured_parameter": "level at 3.5 h", "observed_value": 0.134}
